Target desc: hKCNQ2/3 (Homo sapiens, UniProt O43525+O43526)
Assay summary: Fluorescence assay using a voltage sensitive dye
Assay type: cell-based
Parameters: expressed in transfected cells; host or cells: CHO-K1
pEC50: −log10 of the molar value.
Measure name: pEC50

Recorded pEC50, per entry:
INSERT INTO assay_data (input_smiles, value_observed) VALUES
  ('O=C(NCC1CCCCC1)c1cccnc1SCCS(=O)(=O)c1ccccc1', 6.00),
  ('Cc1ccc(S(=O)(=O)CCSc2ncccc2C(=O)NCc2ccco2)cc1', 5.22),
  ('O=C(NCc1ccccn1)c1cccnc1SCCS(=O)(=O)c1cccc(C(F)(F)F)c1', 5.60);

I. CC(C)(C)CCNC(=O)c1cccnc1SCCS(=O)(=O)c1ccccc1
II. Cc1cccc(SCCSc2ncccc2C(=O)NCc2cccs2)c1
Exercise: // which entry reports the smaller pEC50, I or II ? Refer to your chosen item by its label in the answer.
Key: I
(I: 5.85, II: 6.77)
